Ref: patent US20220363718A1

# assayTarget: T1, Biotinylated human TSLP (human, biotinylated)
# T1 construct: also called hTSLP; thymic stromal lymphopoietin
# T1 sequence (chain, as listed by the source limits assumed): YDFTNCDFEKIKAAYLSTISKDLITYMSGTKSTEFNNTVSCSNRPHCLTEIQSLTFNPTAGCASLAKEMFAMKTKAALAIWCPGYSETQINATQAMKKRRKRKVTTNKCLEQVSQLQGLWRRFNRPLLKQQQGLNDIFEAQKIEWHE
# assayRemarks: SPR, biotinylated hTSLP on streptavidin chip; Example 146, Ac-(SEQ ID NO: 105)
outcomeMeasure: pKd
Hey, just a heads up that pKd is the negative log base 10 of the concentration in molar.

[ask] Fill in reported pKd for this entry: CQWLEDCWRGXC (N-term acetyl; CQWLEDCWRG[2PyrA]C as printed; 3 Cys on TATA) [Example 146]
[reply] 6.04
